molecular target: c-Met (Homo sapiens); construct: endogenous in cells; host or cells: EHMES-1 (human mesothelioma); assay: Activity of dimeric peptide by ELISA (c-Met phosphorylation level in EHMES-1 cells); assay type: cell-based; details: Table 12; EHMES-1 cells, 10 minutes stimulation
Bridges are numbered along the chain shown (N, C = ends). Where no end group is shown, it is not given here. [ ]: non-standard residue; d: D form.
Recorded Endpoint: Activity (c-Met phosphorylation level by ELISA)

[[record]]
substance = "D4-3 Bis-MAL-PEG11: dimeric peptide: two D4-3 macrocycles linked through C-terminal Cys by Bis-MAL-PEG11 linker ({CH2CO}-[dY]RQFNRRTHEVWNLDCGC; thioether N-16; not fully specified (residue 18); also: dimer: two copies joined by Bis-MAL-PEG11, linker at 18 via Bis-MAL-PEG11, other end not in the chain)"
study_target = "c-Met (Homo sapiens)"
endpoint_value = "High"

[[record]]
substance = "D4-3 Bis-MAL-PEG3: dimeric peptide: two D4-3 macrocycles linked through C-terminal Cys by Bis-MAL-PEG3 linker ({CH2CO}-[dY]RQFNRRTHEVWNLDCGC; thioether N-16; not fully specified (residue 18); also: dimer: two copies joined by Bis-MAL-PEG3, linker at 18 via Bis-MAL-PEG3, other end not in the chain)"
study_target = "c-Met (Homo sapiens)"
endpoint_value = "Low"


----------
molecular target: c-Met-Fc (Homo sapiens); test: Binding ability by surface plasmon resonance (SPR, Biacore); conditions: Table 11, monomer and dimeric peptides
Sequence (P08581 with tags, fused parts or gaps limits assumed): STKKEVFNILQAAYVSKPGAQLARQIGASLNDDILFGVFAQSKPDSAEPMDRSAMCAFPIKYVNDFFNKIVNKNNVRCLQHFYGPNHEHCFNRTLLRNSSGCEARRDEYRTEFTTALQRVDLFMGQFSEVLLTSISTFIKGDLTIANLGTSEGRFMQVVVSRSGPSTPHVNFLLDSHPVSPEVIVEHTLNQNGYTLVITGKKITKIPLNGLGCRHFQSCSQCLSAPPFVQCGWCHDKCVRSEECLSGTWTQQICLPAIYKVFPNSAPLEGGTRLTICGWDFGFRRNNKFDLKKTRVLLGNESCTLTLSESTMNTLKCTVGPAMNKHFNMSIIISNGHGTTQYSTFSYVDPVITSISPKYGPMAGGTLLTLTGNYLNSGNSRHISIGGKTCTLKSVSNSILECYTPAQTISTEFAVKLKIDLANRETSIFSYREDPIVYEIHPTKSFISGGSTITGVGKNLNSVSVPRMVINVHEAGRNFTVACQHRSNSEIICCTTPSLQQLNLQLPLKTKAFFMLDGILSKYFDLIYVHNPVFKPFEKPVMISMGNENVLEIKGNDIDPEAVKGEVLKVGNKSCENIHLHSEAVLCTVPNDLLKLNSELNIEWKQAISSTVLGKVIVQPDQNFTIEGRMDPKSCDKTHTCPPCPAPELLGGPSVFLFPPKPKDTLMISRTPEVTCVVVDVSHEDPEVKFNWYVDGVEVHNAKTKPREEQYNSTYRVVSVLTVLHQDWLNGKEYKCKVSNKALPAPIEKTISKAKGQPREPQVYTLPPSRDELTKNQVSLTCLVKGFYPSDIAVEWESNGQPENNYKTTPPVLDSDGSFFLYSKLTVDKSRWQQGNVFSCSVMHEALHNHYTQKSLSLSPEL
Sequence (P08581 25-307 limits assumed): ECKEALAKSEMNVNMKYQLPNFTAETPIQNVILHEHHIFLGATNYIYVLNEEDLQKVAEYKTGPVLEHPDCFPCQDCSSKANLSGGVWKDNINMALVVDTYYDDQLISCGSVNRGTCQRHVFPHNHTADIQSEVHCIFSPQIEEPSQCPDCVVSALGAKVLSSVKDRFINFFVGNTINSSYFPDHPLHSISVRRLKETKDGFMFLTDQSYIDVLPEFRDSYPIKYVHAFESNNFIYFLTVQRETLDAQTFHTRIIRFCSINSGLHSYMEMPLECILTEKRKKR
Bridges are numbered along the chain shown (N, C = ends). Roman numbers before positions name the chains, in order. Where no end group is shown, it is not given here. [ ]: non-standard residue; d: D form. βAla = NCCC(=O)O
Recorded Endpoint: kd

[[record]]
substance = "D5-4 Bis-MAL-PEG3: dimeric peptide: two D5-4 macrocycles linked through C-terminal Cys by Bis-MAL-PEG3 linker (peptide 1 {CH2CO}-[dY]WYYAWDQTYKAFPCG; peptide 2 {CH2CO}-[dY]WYYAWDQTYKAFPCG; thioether I:N-I:15, II:N-II:15; not fully specified (C-terminus); also: dimer: two chains joined by Bis-MAL-PEG3 through an added C-terminal Cys not in the letters)"
endpoint_value = "0.054 10^−2 s^−1"

[[record]]
substance = "D5-4 Bis-MAL-PEG11: dimeric peptide: two D5-4 macrocycles linked through C-terminal Cys by Bis-MAL-PEG11 linker (peptide 1 {CH2CO}-[dY]WYYAWDQTYKAFPCG; peptide 2 {CH2CO}-[dY]WYYAWDQTYKAFPCG; thioether I:N-I:15, II:N-II:15; not fully specified (C-terminus); also: dimer: two chains joined by Bis-MAL-PEG11 through an added C-terminal Cys not in the letters)"
endpoint_value = "1.1 10^−2 s^−1"

[[record]]
substance = "L5-2 Bis-MAL-PEG3: dimeric peptide: two L5-2 macrocycles linked through C-terminal Cys by Bis-MAL-PEG3 linker ({CH2CO}-YISWNEFNSPNWRFITCG[βAla]C-NH2; thioether N-17; not fully specified (residue 20); also: dimer: two copies joined by Bis-MAL-PEG3, linker at 20 via Bis-MAL-PEG3, other end not in the chain)"
endpoint_value = "0.042 10^−2 s^−1"

[[record]]
substance = "D4-3 BMH: dimeric peptide: two D4-3 macrocycles linked through C-terminal Cys by BMH linker ({CH2CO}-[dY]RQFNRRTHEVWNLDCGC; thioether N-16; not fully specified (residue 18); also: dimer: two copies joined by BMH, linker at 18 via BMH, other end not in the chain)"
endpoint_value = "0.091 10^−2 s^−1"

[[record]]
substance = "L5-2 BMH: dimeric peptide: two L5-2 macrocycles linked through C-terminal Cys by BMH linker ({CH2CO}-YISWNEFNSPNWRFITCG[βAla]C-NH2; thioether N-17; not fully specified (residue 20); also: dimer: two copies joined by BMH, linker at 20 via BMH, other end not in the chain)"
endpoint_value = "0.054 10^−2 s^−1"

[[record]]
substance = "D5-4 BMH: dimeric peptide: two D5-4 macrocycles linked through C-terminal Cys by BMH linker (peptide 1 {CH2CO}-[dY]WYYAWDQTYKAFPCG; peptide 2 {CH2CO}-[dY]WYYAWDQTYKAFPCG; thioether I:N-I:15, II:N-II:15; not fully specified (C-terminus); also: dimer: two chains joined by BMH through an added C-terminal Cys not in the letters)"
endpoint_value = "0.055 10^−2 s^−1"

[[record]]
substance = "D4-3 Bis-MAL-PEG3: dimeric peptide: two D4-3 macrocycles linked through C-terminal Cys by Bis-MAL-PEG3 linker ({CH2CO}-[dY]RQFNRRTHEVWNLDCGC; thioether N-16; not fully specified (residue 18); also: dimer: two copies joined by Bis-MAL-PEG3, linker at 18 via Bis-MAL-PEG3, other end not in the chain)"
endpoint_value = "0.070 10^−2 s^−1"

[[record]]
substance = "D4-3 Bis-MAL-PEG11: dimeric peptide: two D4-3 macrocycles linked through C-terminal Cys by Bis-MAL-PEG11 linker ({CH2CO}-[dY]RQFNRRTHEVWNLDCGC; thioether N-16; not fully specified (residue 18); also: dimer: two copies joined by Bis-MAL-PEG11, linker at 18 via Bis-MAL-PEG11, other end not in the chain)"
endpoint_value = "0.11 10^−2 s^−1"

[[record]]
substance = "D4-3NMe Bis-MAL-PEG11: dimeric peptide: two D4-3NMe macrocycles linked through C-terminal Cys by Bis-MAL-PEG11 linker ({CH2CO}-[dY]RQFNRRTHEVWNLDCGC; thioether N-16; not fully specified (residue 18); also: two amino acids N-methylated (N6 + N16), dimer: two D4-3NMe macrocycles linked through C-terminal Cys by Bis-MAL-PEG11)"
endpoint_value = "0.040 10^−2 s^−1"

[[record]]
substance = "L5-2 Bis-MAL-PEG11: dimeric peptide: two L5-2 macrocycles linked through C-terminal Cys by Bis-MAL-PEG11 linker ({CH2CO}-YISWNEFNSPNWRFITCG[βAla]C-NH2; thioether N-17; not fully specified (residue 20); also: dimer: two copies joined by Bis-MAL-PEG11, linker at 20 via Bis-MAL-PEG11, other end not in the chain)"
endpoint_value = "0.031 10^−2 s^−1"


----------
biological target: c-Met (Homo sapiens, UniProt P08581); construct: endogenous in cells; host or cells: EHMES-1 (human mesothelioma); assay: Activity of dimeric peptide by ELISA (c-Met phosphorylation level in EHMES-1 cells); type: cell-based; conditions: Table 13
Sequence (P08581 25-1390): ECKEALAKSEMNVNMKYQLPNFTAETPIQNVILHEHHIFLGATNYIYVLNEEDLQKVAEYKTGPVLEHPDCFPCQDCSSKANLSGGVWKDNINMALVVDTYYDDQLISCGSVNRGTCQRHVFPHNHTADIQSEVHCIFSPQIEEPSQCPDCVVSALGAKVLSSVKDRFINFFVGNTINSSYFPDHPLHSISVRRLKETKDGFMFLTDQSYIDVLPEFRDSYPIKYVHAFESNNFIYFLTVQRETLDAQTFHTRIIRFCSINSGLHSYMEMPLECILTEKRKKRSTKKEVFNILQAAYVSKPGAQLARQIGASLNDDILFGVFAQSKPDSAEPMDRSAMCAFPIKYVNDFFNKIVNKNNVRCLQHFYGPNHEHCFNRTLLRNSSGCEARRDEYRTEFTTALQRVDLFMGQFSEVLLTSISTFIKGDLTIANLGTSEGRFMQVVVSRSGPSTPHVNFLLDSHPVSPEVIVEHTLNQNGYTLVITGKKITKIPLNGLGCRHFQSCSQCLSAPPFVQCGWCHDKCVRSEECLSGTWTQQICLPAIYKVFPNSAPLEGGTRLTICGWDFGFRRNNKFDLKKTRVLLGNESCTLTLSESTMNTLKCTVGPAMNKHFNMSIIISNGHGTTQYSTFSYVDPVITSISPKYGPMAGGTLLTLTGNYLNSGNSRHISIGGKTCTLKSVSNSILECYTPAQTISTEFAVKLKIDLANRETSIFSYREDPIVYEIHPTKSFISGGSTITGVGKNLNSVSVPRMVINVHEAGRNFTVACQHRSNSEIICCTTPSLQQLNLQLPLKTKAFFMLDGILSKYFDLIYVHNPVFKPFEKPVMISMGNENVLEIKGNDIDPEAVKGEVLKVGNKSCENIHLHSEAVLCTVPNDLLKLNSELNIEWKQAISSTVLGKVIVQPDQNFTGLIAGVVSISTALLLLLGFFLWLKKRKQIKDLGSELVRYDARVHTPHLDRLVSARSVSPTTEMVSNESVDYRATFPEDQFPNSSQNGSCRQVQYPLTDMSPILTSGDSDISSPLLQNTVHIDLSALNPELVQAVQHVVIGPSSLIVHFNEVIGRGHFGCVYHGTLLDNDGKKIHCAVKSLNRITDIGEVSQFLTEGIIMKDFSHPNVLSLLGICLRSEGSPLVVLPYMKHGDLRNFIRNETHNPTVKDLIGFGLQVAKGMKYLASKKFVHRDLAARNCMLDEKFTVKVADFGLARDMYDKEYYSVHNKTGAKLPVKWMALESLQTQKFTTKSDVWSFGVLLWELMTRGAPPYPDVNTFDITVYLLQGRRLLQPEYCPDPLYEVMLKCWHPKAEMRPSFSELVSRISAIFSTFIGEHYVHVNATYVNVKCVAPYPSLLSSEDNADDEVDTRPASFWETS
Bridges are numbered along the chain shown (N, C = ends). Where no end group is shown, it is not given here. [ ]: non-standard residue; d: D form. βAla = NCCC(=O)O
Recorded Endpoint: c-Met phosphorylation

[[record]]
substance = "L5-2 BMH: dimeric peptide: two L5-2 macrocycles linked through C-terminal Cys by BMH linker ({CH2CO}-YISWNEFNSPNWRFITCG[βAla]C-NH2; thioether N-17; not fully specified (residue 20); also: dimer: two copies joined by BMH, linker at 20 via BMH, other end not in the chain)"
endpoint_value = "Promote"

[[record]]
substance = "D4-3NMe Bis-MAL-PEG11: dimeric peptide: two D4-3NMe macrocycles linked through C-terminal Cys by Bis-MAL-PEG11 linker ({CH2CO}-[dY]RQFNRRTHEVWNLDCGC; thioether N-16; not fully specified (residue 18); also: two amino acids N-methylated (N6 + N16), dimer: two D4-3NMe macrocycles linked through C-terminal Cys by Bis-MAL-PEG11)"
endpoint_value = "Promote"


----------
Biological target: c-Met (Homo sapiens, UniProt P08581)
Construct: endogenous in cells; host or cells: EHMES-1 (human mesothelioma)
Experiment: Activity of dimeric peptide by ELISA (c-Met phosphorylation level in EHMES-1 cells)
Assay type: cell-based
Details: Table 12; EHMES-1 cells, 10 minutes stimulation
Experimental: Each dimeric peptide was added to human EHMES-1 cells and the mixture was incubated for 10 minutes to stimulate the cells. As a control experiment, a recombinant human HGF protein was added and the mixture was incubated for 10 minutes to stimulate cells. A phosphorylation level of c-Met was quantitatively analyzed using ELISA.
Bridges are numbered along the chain shown (N, C = ends). Roman numbers before positions name the chains, in order. Where no end group is shown, it is not given here. [ ]: non-standard residue; d: D form. βAla = NCCC(=O)O
Recorded Endpoint: Activity (c-Met phosphorylation level by ELISA)

[[record]]
substance = "L5-2 Bis-MAL-PEG11: dimeric peptide: two L5-2 macrocycles linked through C-terminal Cys by Bis-MAL-PEG11 linker ({CH2CO}-YISWNEFNSPNWRFITCG[βAla]C-NH2; thioether N-17; not fully specified (residue 20); also: dimer: two copies joined by Bis-MAL-PEG11, linker at 20 via Bis-MAL-PEG11, other end not in the chain)"
study_target = "c-Met (Homo sapiens, UniProt P08581)"
endpoint_value = "Low"

[[record]]
substance = "D5-4 Bis-MAL-PEG3: dimeric peptide: two D5-4 macrocycles linked through C-terminal Cys by Bis-MAL-PEG3 linker (peptide 1 {CH2CO}-[dY]WYYAWDQTYKAFPCG; peptide 2 {CH2CO}-[dY]WYYAWDQTYKAFPCG; thioether I:N-I:15, II:N-II:15; not fully specified (C-terminus); also: dimer: two chains joined by Bis-MAL-PEG3 through an added C-terminal Cys not in the letters)"
study_target = "c-Met (Homo sapiens, UniProt P08581)"
endpoint_value = "High"

[[record]]
substance = "L5-2 Bis-MAL-PEG3: dimeric peptide: two L5-2 macrocycles linked through C-terminal Cys by Bis-MAL-PEG3 linker ({CH2CO}-YISWNEFNSPNWRFITCG[βAla]C-NH2; thioether N-17; not fully specified (residue 20); also: dimer: two copies joined by Bis-MAL-PEG3, linker at 20 via Bis-MAL-PEG3, other end not in the chain)"
study_target = "c-Met (Homo sapiens, UniProt P08581)"
endpoint_value = "High"

[[record]]
substance = "L5-2 BMH: dimeric peptide: two L5-2 macrocycles linked through C-terminal Cys by BMH linker ({CH2CO}-YISWNEFNSPNWRFITCG[βAla]C-NH2; thioether N-17; not fully specified (residue 20); also: dimer: two copies joined by BMH, linker at 20 via BMH, other end not in the chain)"
study_target = "c-Met (Homo sapiens, UniProt P08581)"
endpoint_value = "Low"

[[record]]
substance = "D4-3NMe Bis-MAL-PEG11: dimeric peptide: two D4-3NMe macrocycles linked through C-terminal Cys by Bis-MAL-PEG11 linker ({CH2CO}-[dY]RQFNRRTHEVWNLDCGC; thioether N-16; not fully specified (residue 18); also: two amino acids N-methylated (N6 + N16), dimer: two D4-3NMe macrocycles linked through C-terminal Cys by Bis-MAL-PEG11)"
study_target = "c-Met (Homo sapiens, UniProt P08581)"
endpoint_value = "High"

